Target: Nav1.7 sodium channels (human SCN9A gene) (Homo sapiens (Human))
Assay: Automated patch clamp (IonWorks Barracuda) of Nav1.7 stably expressed in CHO cells
Format: cell-based
Conditions: inactivated state block, CHO cells; read-out: Inactivated state IC50
Procedure: The potencies of the compounds provided herein to block specific Na+ channels was measured using automated patch clamp electrophysiologically of Nav1.7 sodium channels (human SCN9A gene) stably expressed in CHO cells using the IonWorks™ Barracuda system. Currents were measured from the whole cell patch configuration. […] Peak inward Na+ currents were measured in the presence of vehicle or various concentrations of the test compound to determine the percent block of current. […]
Listing of recorded IC50 by entry.

Reference set, count: 4
>>> df
                                   compound  assay_endpoint    result
0  CN(CCOCCNc1cnc(-c2cccc(Cl)c2Cl)c(N)n1)CC(N)=O [Compound 191]            IC50    244 µM
1  CC(C)OC[C@H](O)CN1CCN(c2nnc(-c3cccc(Cl)c3Cl)c(N)n2)CC1 [Compound 73]            IC50   < 50 µM
2  Nc1nc(NC(CO)CO)nnc1-c1cccc(Cl)c1Cl [Compound 20]            IC50  > 300 µM
3  Nc1nc(N2CCN(CC(O)CO)CC2)nnc1-c1cccc(Cl)c1Cl (stereo not shown) [Compound 92]            IC50  > 300 µM

Look up and report IC50, with Nav1.7 sodium channels (human SCN9A gene) (Homo sapiens (Human)) as system, for Nc1nc(NCCOCCOCCOC(F)(F)F)nnc1-c1cccc(Cl)c1Cl [Compound 167]
< 50 µM

Look up and report IC50, with Nav1.7 sodium channels (human SCN9A gene) (Homo sapiens (Human)) as system, for Nc1nc(N2CCN(C[C@H](O)COCC3CCC3)CC2)nnc1-c1cccc(Cl)c1Cl [Compound 80]
< 50 µM

Look up and report IC50, with Nav1.7 sodium channels (human SCN9A gene) (Homo sapiens (Human)) as system, for COC[C@@H](O)CN1CCC12CCCN(c1nnc(-c3cccc(Cl)c3Cl)c(N)n1)C2 (stereo partly shown) [Compound 161]
51.4 µM

----------
Tested on: Na+ channels
Test: Blockage of Na+ channels, whole-cell patch clamp, isolated dorsal root ganglion cells
Type: cell-based, rat
Conditions: Vh −70 mV (inactivated state), pacing 10 Hz; read-out: IC50 (μM) 10 Hz
Method: Currents are measured using the whole-cell variant of the patch clamp method. INa is elicited by a pulse to −20 mV from a holding potential of −120 mV or −70 mV to measure blockade at the inactivated state (pulse duration of 40 ms), Peak inward current is measured for INa. Pacing rates of […] are examined. Increasing concentrations of test compounds are added to the cells in a cumulative manner to generate a concentration-response relationship which is utilized to calculate the IC50.
assay_endpoint: IC50 (µM)
The response must be a number in µM with no trailing unit.

Look up and report IC50, with Na+ channels as system, for COC[C@@H](O)CN1CCN(c2nnc(-c3cccc(Cl)c3Cl)c(N)n2)CC1 [Compound 97]
16.5

----------
target: Nav1.7 sodium channels (human SCN9A gene) (Homo sapiens (Human), UniProt Q15858); assay: Automated patch clamp (IonWorks Barracuda) of Nav1.7 stably expressed in CHO cells; type: cell-based; details: tonic (resting) state block, CHO cells; read-out: Tonic state IC50
Sequence (Q15858 whole entry): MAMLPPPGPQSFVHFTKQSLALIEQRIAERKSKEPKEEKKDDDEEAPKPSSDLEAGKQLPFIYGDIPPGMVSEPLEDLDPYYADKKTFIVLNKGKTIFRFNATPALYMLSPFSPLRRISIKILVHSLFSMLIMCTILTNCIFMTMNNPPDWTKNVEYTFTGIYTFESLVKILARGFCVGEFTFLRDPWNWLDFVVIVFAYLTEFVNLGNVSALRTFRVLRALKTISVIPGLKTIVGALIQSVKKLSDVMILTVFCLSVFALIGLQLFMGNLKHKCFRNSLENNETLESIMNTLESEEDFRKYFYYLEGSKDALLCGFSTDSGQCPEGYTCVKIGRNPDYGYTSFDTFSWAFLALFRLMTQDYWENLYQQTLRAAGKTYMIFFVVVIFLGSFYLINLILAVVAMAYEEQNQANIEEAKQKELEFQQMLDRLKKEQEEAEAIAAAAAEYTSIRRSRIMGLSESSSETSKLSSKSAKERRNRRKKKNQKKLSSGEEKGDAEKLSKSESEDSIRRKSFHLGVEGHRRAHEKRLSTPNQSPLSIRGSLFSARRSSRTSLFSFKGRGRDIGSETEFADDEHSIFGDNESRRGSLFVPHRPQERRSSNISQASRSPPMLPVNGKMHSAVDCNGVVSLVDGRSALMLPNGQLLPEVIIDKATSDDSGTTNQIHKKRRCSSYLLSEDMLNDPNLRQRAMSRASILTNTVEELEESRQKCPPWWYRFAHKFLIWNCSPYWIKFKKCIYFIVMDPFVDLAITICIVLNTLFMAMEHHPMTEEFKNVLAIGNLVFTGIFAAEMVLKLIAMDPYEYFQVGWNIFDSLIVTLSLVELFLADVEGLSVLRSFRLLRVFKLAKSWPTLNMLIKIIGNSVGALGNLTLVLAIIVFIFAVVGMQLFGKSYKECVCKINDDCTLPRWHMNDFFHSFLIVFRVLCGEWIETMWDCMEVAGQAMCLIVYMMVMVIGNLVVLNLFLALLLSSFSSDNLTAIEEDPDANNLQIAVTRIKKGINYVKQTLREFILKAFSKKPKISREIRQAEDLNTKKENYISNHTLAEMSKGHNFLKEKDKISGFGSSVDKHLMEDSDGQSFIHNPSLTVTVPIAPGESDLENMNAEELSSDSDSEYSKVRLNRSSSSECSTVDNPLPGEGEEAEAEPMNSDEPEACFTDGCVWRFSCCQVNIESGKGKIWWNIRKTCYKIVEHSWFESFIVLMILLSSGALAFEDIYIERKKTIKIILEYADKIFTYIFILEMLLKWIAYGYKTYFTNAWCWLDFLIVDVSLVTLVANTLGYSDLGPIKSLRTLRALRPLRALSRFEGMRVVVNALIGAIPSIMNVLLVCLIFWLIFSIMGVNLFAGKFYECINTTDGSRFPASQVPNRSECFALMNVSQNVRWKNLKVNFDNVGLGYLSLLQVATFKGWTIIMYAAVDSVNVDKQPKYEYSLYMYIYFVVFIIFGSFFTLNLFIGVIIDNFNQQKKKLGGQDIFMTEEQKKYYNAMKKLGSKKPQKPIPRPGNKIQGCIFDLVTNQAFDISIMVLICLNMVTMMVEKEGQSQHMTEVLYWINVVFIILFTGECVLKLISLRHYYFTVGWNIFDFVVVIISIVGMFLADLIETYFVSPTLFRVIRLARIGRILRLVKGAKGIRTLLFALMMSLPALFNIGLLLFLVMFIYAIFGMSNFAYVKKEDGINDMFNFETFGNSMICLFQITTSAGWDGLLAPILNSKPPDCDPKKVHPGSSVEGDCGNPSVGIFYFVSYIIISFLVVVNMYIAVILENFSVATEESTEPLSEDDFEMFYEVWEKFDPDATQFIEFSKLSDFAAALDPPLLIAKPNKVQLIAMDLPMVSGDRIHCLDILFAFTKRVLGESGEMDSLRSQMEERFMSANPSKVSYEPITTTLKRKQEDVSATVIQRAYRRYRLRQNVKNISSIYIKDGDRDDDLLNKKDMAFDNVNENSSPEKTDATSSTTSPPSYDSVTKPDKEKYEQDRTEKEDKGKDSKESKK
pIC50: −log10 of the molar value.
assay_endpoint: pIC50

Reference set, count: 5
                                   molecule                                    target  result
0  COCCOCCOCC(COCCOCCOC)OCCNc1nnc(-c2cccc(Cl)c2Cl)c(N)n1  Nav1.7 sodium channels (human SCN9A gene) (Homo sapiens (Human), UniProt Q15858)  < 3.70
1        Nc1nc(N2CCNCC2)nnc1-c1cccc(Cl)c1Cl  Nav1.7 sodium channels (human SCN9A gene) (Homo sapiens (Human), UniProt Q15858)  < 3.70
2  Nc1nc(N2CCN[C@@H](CO)C2)nnc1-c1cccc(Cl)c1Cl  Nav1.7 sodium channels (human SCN9A gene) (Homo sapiens (Human), UniProt Q15858)  < 3.82
3  CC(CS(=O)(=O)CCO)Nc1nnc(-c2cccc(Cl)c2Cl)c(N)n1 (stereo not drawn)  Nav1.7 sodium channels (human SCN9A gene) (Homo sapiens (Human), UniProt Q15858)  < 3.70
4  COCCOCC(=O)NCC(O)CNc1nnc(-c2cccc(Cl)c2Cl)c(N)n1 (stereo not drawn)  Nav1.7 sodium channels (human SCN9A gene) (Homo sapiens (Human), UniProt Q15858)  < 3.70

Next:
Output measured pIC50 for this item: CS(=O)(=O)CCOCCNc1nnc(-c2cccc(Cl)c2Cl)c(N)n1
< 3.70
